B1: POU domain, class 2, transcription factor 1, residues 285 to 354; numbered along this chain, P14859 (parent)
chain: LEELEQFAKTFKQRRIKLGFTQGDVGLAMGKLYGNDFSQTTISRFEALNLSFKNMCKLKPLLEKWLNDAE

Variants of: B1
Assay: abundance fitness (aPCA) (normalised: wild type 0, dead -1); higher = more abundant; growth selection in yeast, the domain comes from the species named
Conditions: Homo sapiens
recorded metric: abundance fitness
Give a plain numeric answer without units written out.

Observe how each entry below is paired with its result.
| variant id | recorded metric | val |
| --- | --- | --- |
| L18E | abundance fitness | -0.326 |
| G19H | abundance fitness | -0.564 |
| E3M | abundance fitness | -0.089 |

Look up abundance fitness for this variant: `I42L`
-0.074

Tell me the measured abundance fitness of `D68V` , please.
-0.047

Item `S51F` has what recorded abundance fitness?
-0.807

Endpoint output: abundance fitness of `G30W` . Value?
0.006

Quick check: abundance fitness of `G30Q` ?
0.102

Can you share its abundance fitness? I mean this variant: `Y33H`
0.031

All values here come from the Human Domainome abundance scans (Beltran et al. 2025).
